Molecular target: TLR7 (Mus musculus, UniProt P58681)
Construct: endogenous in cells; host or cells: RAW 264.7
Sequence (P58681 27-1050): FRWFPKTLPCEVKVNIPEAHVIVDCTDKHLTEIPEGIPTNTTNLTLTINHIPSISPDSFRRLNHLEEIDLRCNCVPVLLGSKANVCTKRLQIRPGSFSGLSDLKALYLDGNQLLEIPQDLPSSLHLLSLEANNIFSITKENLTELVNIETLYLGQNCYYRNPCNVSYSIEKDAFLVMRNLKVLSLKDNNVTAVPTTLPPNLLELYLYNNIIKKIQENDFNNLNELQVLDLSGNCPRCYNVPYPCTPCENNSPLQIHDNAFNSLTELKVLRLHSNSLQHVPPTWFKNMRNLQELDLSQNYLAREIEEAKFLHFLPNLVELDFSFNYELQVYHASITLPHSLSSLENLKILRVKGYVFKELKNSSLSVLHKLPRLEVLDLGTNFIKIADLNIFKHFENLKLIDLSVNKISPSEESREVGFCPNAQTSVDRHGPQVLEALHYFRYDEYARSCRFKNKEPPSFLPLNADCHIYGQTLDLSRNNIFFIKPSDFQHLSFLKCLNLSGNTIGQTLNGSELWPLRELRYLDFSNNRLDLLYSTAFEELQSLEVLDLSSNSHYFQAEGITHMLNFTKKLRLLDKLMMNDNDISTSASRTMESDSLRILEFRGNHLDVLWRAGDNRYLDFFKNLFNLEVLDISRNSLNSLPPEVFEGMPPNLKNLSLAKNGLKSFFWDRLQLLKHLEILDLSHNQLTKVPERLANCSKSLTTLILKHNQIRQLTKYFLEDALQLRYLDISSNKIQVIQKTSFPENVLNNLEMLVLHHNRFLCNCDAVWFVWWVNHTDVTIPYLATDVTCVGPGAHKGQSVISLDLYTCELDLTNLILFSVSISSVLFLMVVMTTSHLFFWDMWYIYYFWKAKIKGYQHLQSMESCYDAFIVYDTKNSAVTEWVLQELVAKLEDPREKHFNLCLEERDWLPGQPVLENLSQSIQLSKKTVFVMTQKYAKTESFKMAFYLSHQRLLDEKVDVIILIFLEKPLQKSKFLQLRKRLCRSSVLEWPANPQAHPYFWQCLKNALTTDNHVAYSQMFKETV
Test: TLR7 inhibition, TNF-α secretion (ELISA) in RAW 264.7
Assay type: cell-based
MEASURE NAME: IC50 (nM)

> print(dat)
                                   compound                      target.of.assay  measure.name  measured.result
1  Cc1cc2c(N)c3c(nc2n1CCCN(C)C)CCCCCC3 [ETI41]  TLR7 (Mus musculus, UniProt P58681)          IC50              630

----------
Molecular target: human TLR7 (Homo sapiens, UniProt Q9NYK1)
Construct: Fc; purchased R&D Systems
Sequence (Q9NYK1 27-839 limits assumed): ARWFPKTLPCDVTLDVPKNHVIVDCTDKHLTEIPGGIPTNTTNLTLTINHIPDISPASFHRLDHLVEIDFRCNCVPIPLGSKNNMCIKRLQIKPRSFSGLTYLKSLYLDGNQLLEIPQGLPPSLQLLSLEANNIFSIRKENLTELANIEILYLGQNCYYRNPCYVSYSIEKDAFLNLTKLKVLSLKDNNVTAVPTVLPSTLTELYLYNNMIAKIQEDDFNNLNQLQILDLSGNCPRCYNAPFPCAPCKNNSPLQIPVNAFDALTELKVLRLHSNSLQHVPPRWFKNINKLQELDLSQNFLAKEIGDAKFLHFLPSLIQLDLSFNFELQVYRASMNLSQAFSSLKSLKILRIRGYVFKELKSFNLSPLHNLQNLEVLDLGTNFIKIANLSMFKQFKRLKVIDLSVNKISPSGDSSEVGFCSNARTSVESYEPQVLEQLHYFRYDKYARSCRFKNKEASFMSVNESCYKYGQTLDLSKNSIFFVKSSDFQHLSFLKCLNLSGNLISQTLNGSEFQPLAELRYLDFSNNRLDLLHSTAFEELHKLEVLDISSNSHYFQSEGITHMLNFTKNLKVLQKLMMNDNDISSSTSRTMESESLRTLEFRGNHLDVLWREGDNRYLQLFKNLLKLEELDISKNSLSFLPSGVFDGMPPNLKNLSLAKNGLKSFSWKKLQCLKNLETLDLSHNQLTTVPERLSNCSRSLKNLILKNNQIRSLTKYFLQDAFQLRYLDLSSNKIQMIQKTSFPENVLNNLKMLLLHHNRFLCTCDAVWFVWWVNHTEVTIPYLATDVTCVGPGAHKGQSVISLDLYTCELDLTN
Experiment: SPR binding to TLR7
MEASURE NAME: Kd (µM)

> print(dat)
                                   molecule                           target.of.assay  measured.result
1  Cc1cc2c(N)c3c(nc2n1CCCN(C)C)CCCCCC3 [ETI41]  human TLR7 (Homo sapiens, UniProt Q9NYK1)              540

----------
Test: MTT assay, cell survival in RAW 264.7
Type: cell-based
Details: mouse, RAW 264.7 cell line, read-out: LC50
MEASURE NAME: CC50 at 24 h (µM)

> print(dat)
                                   compound  measured.result
1  Cc1cc2c(N)c3c(nc2n1CCCN(C)C)CCCCCC3 [ETI41]             67.2

----------
Target: human TLR7 (Homo sapiens, UniProt Q9NYK1)
Construct: Fc; purchased R&D Systems
Assay: SPR binding to TLR7
Conditions: Fc-TLR7, pH 7.4; read-out: KD
pKd: −log10 of the molar value.
MEASURE NAME: pKd

> print(dat)
                                   compound  measure.name  measured.result
1  COc1ccc2c3c(N)c4c(nc3n(CCCN(C)C)c2c1)CCCC4 [ETI60]           pKd             2.22

----------
Biological target: TLR9 (Mus musculus, UniProt Q9EQU3)
Construct: endogenous in cells; host or cells: RAW 264.7
Sequence (Q9EQU3 26-1032): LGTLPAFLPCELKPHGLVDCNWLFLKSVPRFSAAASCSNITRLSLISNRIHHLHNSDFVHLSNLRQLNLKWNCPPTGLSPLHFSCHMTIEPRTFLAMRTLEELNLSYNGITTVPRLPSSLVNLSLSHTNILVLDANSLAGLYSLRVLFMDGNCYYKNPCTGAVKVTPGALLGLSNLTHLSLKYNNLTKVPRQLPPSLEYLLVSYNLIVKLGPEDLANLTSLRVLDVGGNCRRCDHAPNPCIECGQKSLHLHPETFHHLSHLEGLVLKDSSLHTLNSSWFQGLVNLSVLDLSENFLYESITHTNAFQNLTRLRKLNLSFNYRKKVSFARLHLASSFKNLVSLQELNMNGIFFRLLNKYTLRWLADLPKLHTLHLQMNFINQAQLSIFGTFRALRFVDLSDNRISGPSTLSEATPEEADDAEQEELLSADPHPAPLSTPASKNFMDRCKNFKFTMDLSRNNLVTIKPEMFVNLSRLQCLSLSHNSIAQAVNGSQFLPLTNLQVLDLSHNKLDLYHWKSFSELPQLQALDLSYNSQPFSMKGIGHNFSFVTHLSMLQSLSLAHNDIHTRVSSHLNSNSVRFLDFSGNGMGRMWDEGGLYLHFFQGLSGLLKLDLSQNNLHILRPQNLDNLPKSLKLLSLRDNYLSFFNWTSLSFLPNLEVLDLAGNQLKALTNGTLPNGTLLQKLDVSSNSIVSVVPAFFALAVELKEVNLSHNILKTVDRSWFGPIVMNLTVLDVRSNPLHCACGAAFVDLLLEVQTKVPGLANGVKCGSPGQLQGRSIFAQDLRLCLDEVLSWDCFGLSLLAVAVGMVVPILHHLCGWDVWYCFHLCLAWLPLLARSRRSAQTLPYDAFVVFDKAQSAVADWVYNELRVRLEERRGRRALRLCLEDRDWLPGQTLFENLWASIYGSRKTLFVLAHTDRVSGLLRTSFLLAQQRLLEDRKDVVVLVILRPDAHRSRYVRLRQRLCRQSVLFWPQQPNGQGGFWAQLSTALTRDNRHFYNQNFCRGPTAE
Test: TLR9 inhibition, TNF-α secretion (ELISA) in RAW 264.7
Assay type: cell-based
MEASURE NAME: IC50

> print(dat)
                         smiles.record  measure.name  measured.result
1  Cc1cc2c(N)c3c(nc2n1CCCN(C)C)CCCCCC3          IC50           160 nM

----------
Molecular target: mTLR3 (Mus musculus, UniProt Q99MB1)
Construct: reduction in TNF-α secretion in mouse RAW 264.7 cells; endogenous in cells
Sequence (Q99MB1 26-905): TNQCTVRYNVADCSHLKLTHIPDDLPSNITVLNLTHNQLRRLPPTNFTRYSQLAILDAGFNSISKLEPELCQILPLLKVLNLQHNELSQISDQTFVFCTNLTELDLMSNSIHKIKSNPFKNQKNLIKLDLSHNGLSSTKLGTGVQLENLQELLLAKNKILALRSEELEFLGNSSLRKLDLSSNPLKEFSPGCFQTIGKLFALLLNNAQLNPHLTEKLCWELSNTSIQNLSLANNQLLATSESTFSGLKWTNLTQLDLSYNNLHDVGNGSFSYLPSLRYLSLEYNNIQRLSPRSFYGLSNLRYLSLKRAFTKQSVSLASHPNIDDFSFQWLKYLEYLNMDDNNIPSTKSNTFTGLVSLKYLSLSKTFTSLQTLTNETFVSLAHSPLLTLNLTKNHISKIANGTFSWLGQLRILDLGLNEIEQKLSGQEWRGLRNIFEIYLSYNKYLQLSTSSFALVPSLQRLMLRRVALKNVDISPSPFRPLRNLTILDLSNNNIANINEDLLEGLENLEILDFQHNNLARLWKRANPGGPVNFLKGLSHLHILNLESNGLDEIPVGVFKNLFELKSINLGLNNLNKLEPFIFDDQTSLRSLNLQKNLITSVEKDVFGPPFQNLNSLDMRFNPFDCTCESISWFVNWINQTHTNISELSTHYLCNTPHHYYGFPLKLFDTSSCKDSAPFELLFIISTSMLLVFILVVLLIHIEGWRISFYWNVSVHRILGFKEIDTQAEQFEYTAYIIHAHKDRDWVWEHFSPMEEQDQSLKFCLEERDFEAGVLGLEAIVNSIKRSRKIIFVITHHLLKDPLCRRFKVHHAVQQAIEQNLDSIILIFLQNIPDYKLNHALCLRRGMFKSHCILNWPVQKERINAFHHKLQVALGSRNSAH
Assay: TLR3 inhibition, poly I:C-induced mTNFα in RAW 264.7
Procedure: RAW 264.7 and differentiated THP-1 cells were seeded into 96-well plates at 2 × 10^4 cells per well, while Daudi cells were seeded at 5 × 10^4 cells per well. […] Optical absorbance was measured using a BioTek Synergy HTX multimode microplate reader, and data were interpolated using BioTek Gen5 software. One-tailed paired Student’s t-tests were performed using Microsoft Excel (Microsoft). […] The therapeutic index was calculated as IC50/LC50. […] Homogeneity of variance was assessed using Levene’s test. […]
MEASURE NAME: IC50 (nM)

> print(dat)
                              smiles.record  measure.name  measured.result
1       Cc1cc2c(N)c3c(nc2n1CCCN(C)C)CCCCCC3          IC50              993
2  COc1ccc2c3c(N)c4c(nc3n(CCCN(C)C)c2c1)CCCC4          IC50              372

Data credit: paper PMC12508057
